target system: IL-17A/A (Homo sapiens, UniProt Q16552)
Sequence (Q16552 24-155): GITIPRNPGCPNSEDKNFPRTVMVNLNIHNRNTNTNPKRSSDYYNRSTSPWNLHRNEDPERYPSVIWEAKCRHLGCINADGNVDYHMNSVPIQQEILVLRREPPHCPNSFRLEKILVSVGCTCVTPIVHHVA
assay summary: IL-17A/A HEK-Blue cell assay
assay setup: HEK-Blue IL-17A reporter cell line (HEK 293), IL-17A/A stimulation, 20 hours incubation, SEAP read at A630
endpoint name: IC50

# get_value(readout='IC50', item= O=C(N[C@H](c1cn2nc(CC3C[C@@H](C(F)(F)F)CNC3=O)ccc2n1)C1CCC(F)(F)CC1)c1ccnn1CC(F)(F)F (stereo partly drawn) [Compound 105] )
100 to 1000 nM

Please give the measured IC50 for this compound: CCn1nccc1C(=O)N[C@H](c1cn2nc(CC3CC(F)(F)CNC3=O)ccc2n1)C1CCC(F)(F)CC1 (single isomer, unassigned) [Compound 25]
100 to 1000 nM

Report IC50 for CCn1nccc1C(=O)NC(c1cn2nc(CC3CC(C)CNC3=O)ccc2n1)C1CCC(C)CC1 (single isomer, unassigned) [Compound 50] please.
> 1000 nM

Consider the compound CCn1nccc1C(=O)N[C@H](c1cn2nc(CC3CC(F)(F)CNC3=O)c(NC(=O)OC)cc2n1)C1CCC(F)(F)CC1 (stereo partly drawn) [Compound 72] and give its measured IC50.
100 to 1000 nM

Which measured IC50 value corresponds to CCn1nccc1C(=O)N[C@H](c1cn2nc(CC3CC(F)(F)CNC3=O)c(NC)cc2n1)C1CCC(F)(F)CC1 (single isomer, unassigned) [Compound 74] ?
> 1000 nM

May I ask what IC50 has been recorded for CCn1nccc1C(=O)N[C@H](c1cn2nc(CC3C[C@@H](C(F)(F)F)CNC3=O)c(Cl)cc2n1)C1CCC(F)(F)CC1 (single isomer, unassigned) [Compound 80] ?
100 to 1000 nM

###

target system: IL-17A/A (Homo sapiens, UniProt Q16552)
assay summary: IL-17A/A HEK-Blue cell assay
assay setup: HEK-Blue IL-17A reporter cell line (HEK 293), IL-17A/A stimulation, 20 hours incubation, SEAP read at A630
pIC50: −log10 of the molar value.
endpoint name: pIC50

molecule	pIC50
CCn1nccc1C(=O)N[C@H](c1cn2nc(CC3CC4(CC4)CNC3=O)ccc2n1)[C@H]1CC[C@H](C)CC1 (single isomer, unassigned)	6.00 to 7.00
CCn1nccc1C(=O)N[C@H](c1cn2nc(CC3C[C@@H](C(F)(F)F)CNC3=O)ccc2n1)[C@H]1CCCC(F)(F)C1 (stereo partly drawn)	> 7.00
CCn1nccc1C(=O)N[C@H](c1cn2nc(CC3C[C@@H](C)NC3=O)ccc2n1)[C@H]1CC[C@H](C)CC1 (single isomer, unassigned)	6.00 to 7.00
CCn1nccc1C(=O)N[C@H](c1cn2nc(CC3C[C@@H](C(F)(F)F)CNC3=O)c(C(C)C)cc2n1)C1CCC(F)(F)CC1 (stereo partly drawn)	> 7.00
O=C(N[C@H](c1cn2nc(CC3C[C@H](C(F)(F)F)CNC3=O)ccc2n1)[C@H]1CCCC(F)(F)C1)c1nonc1C1CC1 (stereo partly drawn)	> 7.00

Please look at the following molecule next.
Fill blank: measured pIC50 of the molecule CCn1nccc1C(=O)N[C@H](c1cn2nc(CC3CCC(C(F)(F)F)NC3=O)ccc2n1)C(C1CC1)C1CC1 (single isomer, unassigned) [Compound 43] is ____.
< 6.00

###

target system: IL-17A/A (Homo sapiens)
assay summary: IL-17A/A HEK-Blue cell assay
assay setup: HEK-Blue IL-17A reporter cell line (HEK 293), IL-17A/A stimulation, 20 hours incubation, SEAP read at A630
pIC50: −log10 of the molar value.
endpoint name: pIC50

Here is how some molecules turned out for pIC50.
molecule	pIC50
O=C1NC[C@H](C(F)(F)F)CC1Cc1ccc2nc([C@@H](NC(=O)C3(F)CC3)C3CCC(F)(F)CC3)cn2n1 (stereo partly drawn)	< 6.00
CCn1nncc1C(=O)N[C@H](c1cn2nc(CC3C[C@@H](C(F)(F)F)CNC3=O)ccc2n1)C1CCC(F)(F)CC1 (stereo partly drawn)	6.00 to 7.00
CC(C)n1nccc1C(=O)N[C@H](c1cn2nc(CC3C[C@H](C(F)(F)F)CNC3=O)ccc2n1)[C@@H]1CCCC(F)(F)C1 (stereo partly drawn)	> 7.00
CCn1nccc1C(=O)NC(c1cn2nc(CC3CC(F)(F)CNC3=O)ccc2n1)C1CCCC(F)(F)C1 (mixture of isomers)	6.00 to 7.00
CCn1nccc1C(=O)N[C@H](c1cn2nc(CC3C[C@@H](C(F)(F)F)CNC3=O)c(N(C)C3CC3)cc2n1)C1CCC(F)(F)CC1 (single isomer, unassigned) [Compound 91]	> 7.00

Next, consider the following molecule.
Return reported pIC50; argument: `CCc1nonc1C(=O)N[C@H](c1cn2nc(C[C@H]3CCCNC3=O)ccc2n1)C1CCC(F)(F)CC1`
< 6.00

###

target system: IL-17A/A (Homo sapiens, UniProt Q16552)
assay summary: IL-17A/A HEK-Blue cell assay
assay setup: HEK-Blue IL-17A reporter cell line (HEK 293), IL-17A/A stimulation, 20 hours incubation, SEAP read at A630
pIC50: −log10 of the molar value.
Here the recorded pIC50 is given for each entry.

Answered cases to consult:
compound	pIC50
CCn1nccc1C(=O)N[C@H](c1cn2nc(CC3C[C@@H](C(F)(F)F)CNC3=O)c(C)cc2n1)C1CCC(F)(F)CC1 (single isomer, unassigned) [Compound 82]	< 6.00
CCN(C)c1cc2nc([C@@H](NC(=O)c3ccnn3CC)C3CCC(F)(F)CC3)cn2nc1CC1C[C@@H](C(F)(F)F)CNC1=O (single isomer, unassigned) [Compound 88]	> 7.00

API: the following record is the query input.
Need pIC50, item O=C(N[C@H](c1cn2nc(CC3C[C@@H](C(F)(F)F)CNC3=O)ccc2n1)C1CCC(F)(F)CC1)c1conc1C12CC(F)(C1)C2 (stereo partly drawn)
6.00 to 7.00

###

target system: IL-17A/A (Homo sapiens, UniProt Q16552)
Sequence (Q16552 24-155): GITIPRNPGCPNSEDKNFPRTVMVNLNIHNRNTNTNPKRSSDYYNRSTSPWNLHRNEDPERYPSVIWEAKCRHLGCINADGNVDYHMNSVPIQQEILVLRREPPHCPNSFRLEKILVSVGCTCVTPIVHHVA
assay summary: IL-17A/A HEK-Blue cell assay
assay setup: HEK-Blue IL-17A reporter cell line (HEK 293), IL-17A/A stimulation, 20 hours incubation, SEAP read at A630
pIC50: −log10 of the molar value.
Here, each record is paired with measured pIC50 data.

compound	target system	pIC50
O=C(N[C@H](c1cn2nc(CC3C[C@@H](C(F)(F)F)CNC3=O)ccc2n1)C1CCC(F)(F)CC1)c1cnnn1CCF (stereo partly drawn)	IL-17A/A (Homo sapiens, UniProt Q16552)	6.00 to 7.00
O=C(N[C@H](c1cn2nc(CC3C[C@@H](C(F)(F)F)CNC3=O)ccc2n1)[C@H]1CCCC(F)(F)C1)c1nonc1C1CC1 (stereo partly drawn)	IL-17A/A (Homo sapiens, UniProt Q16552)	> 7.00

In the following, a different compound is considered.
Entry CCn1ncnc1C(=O)N[C@H](c1cn2nc(CC3C[C@@H](C(F)(F)F)CNC3=O)ccc2n1)[C@H]1CC[C@H](C)CC1 (stereo partly drawn) has what pIC50?
< 6.00

###

target system: IL-17A/A (Homo sapiens, UniProt Q16552)
assay summary: IL-17A/A HEK-Blue cell assay
assay setup: HEK-Blue IL-17A reporter cell line (HEK 293), IL-17A/A stimulation, 20 hours incubation, SEAP read at A630
Catalogue of IC50 values

compound	experimental value
O=C1NC[C@H](C(F)(F)F)CC1Cc1ccc2nc([C@@H](NC(=O)C3CC34CC(F)(F)C4)C3CCC(F)(F)CC3)cn2n1 (single isomer, unassigned) [Compound 130]	> 1000 nM

Entry CCn1nccc1C(=O)N[C@H](c1cn2nc(CC3C[C@@H](C(F)(F)F)NC3=O)ccc2n1)C1CCC(F)(F)CC1 (stereo partly drawn) : reported IC50 = ?
100 to 1000 nM

Fill in: IC50 of CCn1nccc1C(=O)N[C@H](c1cn2ncc(CC3C[C@@H](C(F)(F)F)CNC3=O)cc2n1)[C@H]1CC[C@H](C)CC1 (single isomer, unassigned) is ___
100 to 1000 nM

// query IC50 value for entry Cc1nonc1C(=O)N[C@H](c1cn2nc(CC3C[C@@H](C(F)(F)F)CNC3=O)ccc2n1)[C@H]1CC[C@H](C)CC1 (stereo partly drawn)
100 to 1000 nM

Returns the measured IC50 for the input compound. Input: O=C(N[C@H](c1cn2ncc(CC3C[C@@H](C(F)(F)F)NC3=O)cc2n1)C1CCC(F)(F)CC1)c1conc1C(F)(F)F (single isomer, unassigned)
< 100 nM

Item O=C(N[C@H](c1cn2nc(CC3C[C@H](C(F)(F)F)CNC3=O)ccc2n1)[C@@H]1CCCC(F)(F)C1)c1nonc1C1CC1 (stereo partly drawn) has what recorded IC50?
100 to 1000 nM

Field request: IC50 | item: O=C(N[C@H](c1cn2nc(C[C@H]3C[C@@H](C(F)(F)F)NC3=O)ccc2n1)C1CCC(F)(F)CC1)c1nonc1C1CC1 (single isomer, unassigned)
100 to 1000 nM

I have this compound here, Cc1nonc1C(=O)N[C@H](c1cn2nc(CC3C[C@@H](C(F)(F)F)CNC3=O)ccc2n1)C1CCC(F)(F)CC1 (stereo partly drawn) , and I need its recorded IC50.
100 to 1000 nM

Need IC50, item CCn1nccc1C(=O)N[C@H](c1cn2nc(CC3CCCNC3=O)ccc2n1)C1CCC(F)(F)CC1 (single isomer, unassigned)
100 to 1000 nM
